Reference for the values: PubChem BioAssay (NCI)

# Tested on: SF-268 CNS
# Procedure Summary: NCI-60 one-dose screen, 48 h (100 = growth as untreated, 0 = no growth, -100 = all killed)
# Protocol Conditions: 10 µM unless noted
The panel holds about 83,000 compounds, 20% with a hit somewhere; the sample as a whole holds those more often.
Property: growth (%)
Reply with just the number (in %).

The cases that follow already have their growth on record.
In: Give its growth value. Item: COc1ccccc1NC(=O)N=Nc1c(O)[nH]c2ccccc12
Out: 99.1

In: Looking for the measured growth of Oc1ccc(Cl)cc1/C=N\NC(=S)N/N=C/c1cc(Cl)ccc1O , can you help?
Out: 40.6

In: // lookup growth for O=C(CN1C(=O)S/C(=C\c2ccccc2)C1=O)Nc1ncc(Cc2ccccc2Cl)s1
Out: 87.9

In: What value of growth has been reported for the following compound? COC(=O)c1nc(-c2ccccc2)oc1S(=O)(=O)Cc1ccccc1
Out: 93.1

In: # lookup: growth of COC(=O)[C@@H](CCCCNC(=O)[C@]12CCC(C)(C)C[C@@H]1C1=CC[C@@H]3[C@@]4(C)C/C(=C/c5ccco5)C(=O)C(C)(C)[C@@H]4CC[C@@]3(C)[C@]1(C)CC2)NC(=O)[C@]12CCC(C)(C)C[C@@H]1C1=CC[C@@H]3[C@@]4(C)C/C(=C/c5ccco5)C(=O)C(C)(C)[C@@H]4CC[C@@]3(C)[C@]1(C)CC2
Out: 104

In: Give the measured growth of COc1cc(C2CC(c3ccc(Nc4nc(Nc5ccc(Cl)cc5)nc(Nc5ccc(Cl)cc5)n4)cc3)=NN2C(C)=O)cc(OC)c1OC (configuration not stated) .
Out: 106

Further cases:
In: Return reported growth; argument: COc1ccc(/C=N\Nc2nc(SCCC(C)C)nc(-c3ccc(OC)cc3)c2C#N)cc1
Out: 78.9

---

# System: IGROV1 ovarian
# Procedure Summary: NCI-60 one-dose screen, 48 h
# Protocol Conditions: 10 µM unless noted
Compounds without any hit were thinned out: in the full panel of roughly 83,000, 20% have a hit. The source made the active and inactive calls. Rule for the calls: active = growth percent below 10; inactive = the rest.
# valid calls are true (1) = active, false (0) = inactive; nothing else

In: Fill in: this test's call for COC1/C=C/OC2(C)Oc3c(C)c(O)c4c(O)c(c(/C=N/Nc5ccc([N+](=O)[O-])cc5[N+](=O)[O-])c(O)c4c3C2=O)NC(=O)C(C)=C/C=C/C(C)C(O)C(C)C(O)C(C)C(OC(C)=O)C1C (centres undefined) is ___
Out: false (0)

More entries:
In: Outcome? CCCNc1nc2ccccc2c2c1S(=O)(=O)c1ccc(Cl)cc1C2=O
Out: false (0)

In: Dear colleague, could you share the recorded outcome for O=C(/C=C(/C=C/c1ccc2[nH]ccc2c1)OB(F)F)/C=C/c1ccc2[nH]ccc2c1 when you have a moment?
Out: true (1)

In: Fill in: this test's call for CC1CN(S(=O)(=O)c2oc(-c3ccc(Cl)cc3)nc2C#N)CC(C)O1 (centres undefined) is ___
Out: false (0)

In: Could you check what this test reported for O=C(Nc1cccc2ccccc12)NC1CC1 ?
Out: false (0)

---

growth values, listed per item
# Test system: MCF7 breast
# Procedure Summary: NCI-60 one-dose screen, 48 h (100 = growth as untreated, 0 = no growth, -100 = all killed)
# Protocol Conditions: 10 µM unless noted
This is part of a sample that, as a whole, favours compounds with a hit. Of some 83,000 tested, about 20% had one in any assay.
Your answer is read as %, so omit the unit and give the number.

# count of solved cases: 6
In: Find the recorded growth belonging to CCn1c(SCC(=O)N/N=C(\C)c2ccc(Cl)cc2)nc2c1c(=O)n(C)c(=O)n2C and report it.
Out: 95.8

In: // query growth value for entry CCCC/C=C/[C@@H]1C[C@H]1CCO
Out: 87.5

In: Suppose we examine the molecule O=C1Nc2ccccc2/C1=C/c1cccn1CCCCn1c2ccccc2c(=O)c2ccccc21 ; what growth value has been reported?
Out: 3.81

In: I would be grateful if you could share the reported growth for CCOC(=O)C#Cc1c(C(=O)OCC)nnn1Cc1ccc([N+](=O)[O-])cc1 .
Out: 6.62

In: Given the molecule COc1ccc(-c2nc3cc(C(=O)NCc4ccccc4)ccc3n2C2CCCCC2)cc1 , what is its reported growth?
Out: 76.6

In: Which growth is listed for CCC(C(=O)[C@@H](C)[C@@H](O)[C@H](C)[C@@H]1O[C@@H]([C@@H](CC)C(=O)ONC(=O)c2ccccc2)CC[C@@H]1C)[C@H]1O[C@]2(C=CC(=O)[C@]3(CC[C@@](C)([C@H]4CC[C@](O)(CC)[C@H](C)O4)O3)O2)[C@H](C)C[C@@H]1C (some centres undefined) ?
Out: 3.51

Further cases:
In: Any idea what its growth is? The molecule is Cn1cc(C(=O)c2nc(-c3c[nH]c4ccccc34)no2)c2cc(F)ccc21
Out: 19.2

In: Report growth for C=C1C(=O)O[C@H]2[C@H]1CC/C(Cn1cc(-c3ccccc3)nn1)=C\CC[C@@]1(C)O[C@@H]21 please.
Out: -60.1

In: Quick one: growth of CC(=O)n1nc(C(=O)OC(C)(C)c2ccccc2)c2ccccc21 ?
Out: 94

In: Given COc1ccc2[nH]c(C(=O)N3CCN(C(=O)OCc4ccc5c(Cl)cc(Cl)c(O)c5n4)CC3)cc2c1 , state its recorded growth.
Out: -55.7

In: Which growth value belongs to O=C1c2ccccc2-c2c1c1c(=O)[nH]c3ccccc3c1n2Cc1ccccc1 ?
Out: 56.5

In: Bench note: what growth did CCCCNC(=O)Oc1ccc(/C(=C(/C)Cc2ccc(OC)cc2)c2ccc(OCCN(CC)CC)cc2)cc1 show?
Out: 28.5

In: Field request: growth | item: CC1=NC2=Nn3c(c4cnn(-c5ccccc5)c4n/c3=N\N)NN2C(c2ccccc2)=C1
Out: 87.8

In: GET /values?readout=growth&item= N#CC(C#N)N=Nc1ccc(Br)cc1
Out: 19.4

In: Sample CN(C)CCNC(=O)c1cc2c3cc(Cl)ccc3[nH]c2c2ncccc12 — what was its growth?
Out: -16.1
